- SYSTEM: full length spike (S) protein of SARS-CoV-2 (SARS-CoV-2, UniProt P0DTC2 14-1273)
- PROTOCOL_TEXT: cell-based or functional assay
Criterion: Neutralizing activity (%) Mean at 50 µg/ml strictly under 70%. Met: True. Not met: False.

BINDER	CLASSIFICATION
P2A-1A8 (antibody, V domains shown) VH: EVQLVESGGDLVQPGRSLRLSCAASGFAFDDYAMHWVRQAPGKGLEWVSGSTWNSGTIAYADSVKGRFTISRDNAKKSLYLQMNSLRTEDTALYYCAKLGGYSDYDYPRPGDHYYGLDVWGQGTTVTVSS VL: QSALTQPASVSGSPGQSITISCTGTSSDVGSYNLVSWYQQHPGKVPKLLIYDVNKRPSGISNRFSGSKSGNTASLTISGLQAEDEADYYCRSYTDSNTYVFGTGTKVTVLG	False
P2A-1B3 (antibody, V domains shown) VH: EVQLVESGGGLVQPGGSLRLSCVASGFSFNRYSMNWLRQTPRKGLEWLSYISASGNTIYYADSVRGRFTTSRDNAKNTLYLQMNSLRDDDTAVYFCARPAMVREGTYNWFDPWGQGTLVTVSS VL: EIVLTQSPGTLSLSPGERATLSCRASQSVSNDYLAWYQQKPGQAPRLLIYYASSRATGIPDRFSGSGSGTDFTLTISRLEPGDSAVYYCQQYGDSPPITFGQGTRLEIKR	False
P2B-2G4 (antibody, V domains shown) VH: QVQLVESGGGVVQPGRSLRLSCAASGFTFSSYGMHWVRQAPGKGLEWVAVIWYDGSNKYYADSVKGRFTISRDNSKNTLYLQMNSLRAEDTAVYYCARGAAMVWLDYWGQGTLVTVSS VL: QSALTQPRSVSGSPGQSVTISCTGTSSDVGGYNYVSWYQQHPGKAPKLMIYDVSKRPSGVPDRFSGSKSGNTASLTISGLQAEDEADYYCCSYAGSYTFVVFGGGTKLTVLG	False

Task item: Criterion: Neutralizing activity (%) Mean at 50 µg/ml strictly below 70%. Is it met by P2B-2G11 (antibody, V domains shown) VH: EVQLVESGGGLVQPGRSLRLSCAASGFTFDDYAMHWVRQAPGKGLEWVSGISWNGGIIGYADSVKGRFTISRDNAKTSLYLQMNSLKPEDTALYYCAKVAGRGDYDYYYGMDVWGQGTTVTVSS VL: QSVLTQPPSVSGAPGQRVTISCTGSSSNIGAGYDVHWYQQLPGTAPKLLIYGNNNRPSGVPDRFSGSKSGTSASLAITGLQAEDEADYYCQSYDSSLSGSVFGGGTKLTVLG ?
Reply: True

Task item: Criterion: Neutralizing activity (%) Mean at 50 µg/ml strictly below 70%. Is it met by P2B-2F6 (antibody, V domains shown) VH: QVQLQESGPGLVKPSETLSLTCTVSGYSISSGYYWGWIRQPPGKGLEWIGSIYHSGSTYYNPSLKTRVTISVDTSKNQFSLKLSSVTAADTAVYYCARAVVGIVVVPAAGRRAFDIWGQGTMVTVSS VL: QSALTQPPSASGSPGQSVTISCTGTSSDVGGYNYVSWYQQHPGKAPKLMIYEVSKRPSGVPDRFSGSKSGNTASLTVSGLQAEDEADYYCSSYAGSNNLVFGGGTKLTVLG ?
Reply: False

Task item: Criterion: Neutralizing activity (%) Mean at 50 µg/ml strictly below 70%. Is it met by P2A-1A9 (antibody, V domains shown) VH: EVQLVESGGGLVQPGRSLRLSCAASGFTFDDYAMHWVRQVPGKGLEWVSGISWNGGIIGYADSVKGRFTISRDNAKTSLYLQMNSLRAEDTALYYCAKVAGRGDYDYYYGMDVWGQGTTVTVSS VL: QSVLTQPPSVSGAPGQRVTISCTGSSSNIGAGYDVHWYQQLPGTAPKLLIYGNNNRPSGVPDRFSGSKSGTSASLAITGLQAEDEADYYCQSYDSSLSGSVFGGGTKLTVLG ?
Reply: True
